# ASSAY: Nuclear factor erythroid 2-related factor 2/antioxidant responsive element (Nrf2/ARE) small molecule agonists: luciferase reporter gene qHTS assay in human keratinocytes (AID 1919969); note: nearly all actives have a fitted effect of over 35% in size
# MEASUREMENT_PARAMETERS: KeratinoSens HaCaT ARE-luciferase, luminescence, 24 h; series mostly up to 92.4 µM
Inconclusive results are not listed. The source made the active and inactive calls. Calls come from the whole dose curve.
// one of label 1 for active, label 0 for inactive, no free text

Would you please look over these solved cases?
MOLECULE | CLASS_NAME
Oc1ccc(Cl)c(Cl)c1Cl | label 0
CCN(CC)C(=O)Cl | label 0
OC(Cn1cncn1)(c1ccc(F)cc1)c1ccccc1F (centres undefined) | label 0
O=CNC(N1CCN(C(NC=O)C(Cl)(Cl)Cl)CC1)C(Cl)(Cl)Cl (centres undefined) | label 0
COC1=CC(=O)O[C@@H](CCc2ccccc2)C1 | label 0
O=C(O)C(Br)(Br)Br | label 0
CC(C)(C)NCC(O)c1ccccc1Cl (centres undefined) | label 0
N#Cc1c2ccccc2cc2ccccc12 | label 0

Request: In this assay, the call recorded for `COP(=S)(OC)Oc1ccc([N+](=O)[O-])cc1Cl` was what?
Result: label 0

Request: Hi team, can someone confirm the assay call for `ClC=C(Cl)Cl` ?
Result: label 0

Request: Recorded call for `O=c1ssc(Cl)c1Cl` ?
Result: label 1

----------
# SYSTEM_UNDER_TEST: Beta-2 adrenergic receptor (Homo sapiens)
# ASSAY: Adrenergic beta2 receptor (ADRB2) small molecule agonists, cell-based qHTS assay (AID 1963593);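 note: CHO cells stably overexpressing human ADRB2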
# MEASUREMENT_PARAMETERS: CHO-ADRB2 cells, cAMP HTRF, 30 min; series mostly up to 92.4 µM
Inconclusive results are not listed. Activity calls are given as the source filed them. Calls follow the shape of the full dose curve.
Write down the outcome that applies. Available outcomes: active, inactive

Example entries and their recorded answers appear below.
MOLECULE | SYSTEM_UNDER_TEST | CLASS_NAME
S=C=NCCc1ccccc1 | Beta-2 adrenergic receptor (Homo sapiens) | inactive
NCCCNCCCN | Beta-2 adrenergic receptor (Homo sapiens) | inactive
C[C@@H]1O[C@@H](O[C@@H]2C=C3CC[C@@H]4[C@H](CC[C@]5(C)[C@@H](c6ccc(=O)oc6)CC[C@]45O)[C@@]3(C)CC2)[C@H](O)[C@H](O)[C@H]1O | Beta-2 adrenergic receptor (Homo sapiens) | inactive
CCCCCC[N+](=O)[O-] | Beta-2 adrenergic receptor (Homo sapiens) | inactive
CCc1nn(C)c(C(=O)NCc2ccc(C(C)(C)C)cc2)c1Cl | Beta-2 adrenergic receptor (Homo sapiens) | inactive
O=C(Nc1ccccc1)N(Cc1ccc(Cl)cc1)C1CCCC1 | Beta-2 adrenergic receptor (Homo sapiens) | inactive
O=[N+]([O-])c1ccccc1Cl | Beta-2 adrenergic receptor (Homo sapiens) | inactive
CC(C)(c1ccccc1)c1ccc(O)cc1 | Beta-2 adrenergic receptor (Homo sapiens) | inactive
COc1ccc(-c2ccccc2)cc1NNC(=O)OC(C)C | Beta-2 adrenergic receptor (Homo sapiens) | inactive
C[C@@H](N)[C@@H](O)c1ccccc1 | Beta-2 adrenergic receptor (Homo sapiens) | inactive

Request: Which result was noted for this molecule in the test: CCCCC(CC)COC(=O)OOC(C)(C)C (stereo unspecified)
Result: inactive

Request: Query: recorded result category for `CNC(=O)O/N=C(\C)SC` in this test
Result: inactive

Request: For this molecule, state the assay outcome: `O=C1NC(=O)C(=O)C(=O)N1`
Result: inactive

Request: Hi team, can someone confirm the assay call for C[N+]1(C)[C@@H]2CC[C@H]1CC(OC(=O)C(CO)c1ccccc1)C2 (stereo partly specified) ?
Result: inactive

Request: Assay result, entry `N#C/C(N)=C(/N)C#N` — outcome?
Result: inactive

Request: What was the test verdict on `NC(=O)C(Cl)(Cl)Cl` ?
Result: inactive
